tested on: OVCAR-8 ovarian; experiment: NCI-60 one-dose screen, 48 h; conditions: 10 µM unless noted
Compounds without any hit were thinned out: in the full panel of roughly 83,000, 20% have a hit. Calls of active or inactive are those of the source. Rule for the calls: active = growth percent below 10; inactive = the rest.
Classes used: True = active, False = inactive

>>> discrete_label("O=C(OC[C@@H]1CO1)c1cccc2c(=O)c3ccccc3[nH]c12")
"True"
>>> discrete_label("O=c1ccc2nc(C(F)(F)F)nn(-c3ccccc3)c-2c1")
"False"
>>> discrete_label("COc1ccc(NC(=O)c2sc3nc(C)c(C(O)c4ccccc4)cc3c2N)cc1 (stereo not given)")
"False"
>>> discrete_label("CCOC(=O)N1CCN(S(=O)(=O)c2oc(-c3ccc(Cl)cc3)nc2C#N)CC1")
"False"
>>> discrete_label("O=c1[nH]cnc2c1C(c1ccc(Br)cc1)c1sc3c(F)cccc3c1O2 (stereo not given)")
"False"
